# experiment_description: In vitro degradation experiment in rat liver homogenate (HPLC)
# Type: in vitro ADME
# stated_conditions: rat liver homogenate, 37° C., 50 μg/mL, 10 min
// values below are reported Residual rate at 10 min (%)
Your answer is read as %, so omit the unit and give the number.

Solved cases below.
C[C@H](c1ccccc1)n1cncc1C(=O)OCOC(=O)OC(C)(C)C [Example 4] : 60.1
CC(C)OC(=O)OC(C)OC(=O)c1cncn1[C@H](C)c1ccccc1 (some centres unmarked) [Example 8] : 0
CCOC(=O)OCOC(=O)c1cncn1[C@H](C)c1ccccc1 [Example 2] : 0
CC(C)COC(=O)OCOC(=O)c1cncn1[C@H](C)c1ccccc1 [Example 5] : 0
COC(=O)CCOC(=O)c1cncn1[C@H](C)c1ccccc1 [MOC-ET, reference compound] : 0

The reported Residual rate at 10 min (%) of the molecule CCC(C)OC(=O)OCOC(=O)c1cncn1[C@H](C)c1ccccc1 (some centres unmarked) [Example 6] was 0.9

The reported Residual rate at 10 min (%) of the molecule CC[C@H](C)OC(=O)OCOC(=O)c1cncn1[C@H](C)c1ccccc1 [Example 17] was 0

The reported Residual rate at 10 min (%) of the molecule COC(=O)C1(OC(=O)c2cncn2[C@H](C)c2ccccc2)CC1 [CPMM, reference compound] was 0
